B1: CPEB3 Ribozyme (parent)
chain: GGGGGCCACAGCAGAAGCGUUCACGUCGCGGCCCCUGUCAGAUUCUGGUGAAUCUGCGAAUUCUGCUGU

variants of: B1; assay: self-cleavage, relative activity (ratio to wild type); higher = more cleavage; co-transcriptional
Measurement Name: self-cleavage
Enter a number only.

// solved cases for self-cleavage follow
| Polymer Sequence | self-cleavage |
| --- | --- |
| GGGGGCCACAGCAGAAGCGUUCACGUCGCGGGCCCUGUAAGAUUCUGGUGAAUCUGCGAAUUCUGCUGU [C32G C39A] | 0.282 |
| GGGGGCCACAGCAGAAGCGUUCACGUCGCGGCCCCUGUCAGAUUCUGGUGAAUCUGCGAAGUCUGCUGA [U61G U69A] | 0.969 |
| GGGUGCCACAGCAGAAUCGUUCACGUCGCGGCCCCUGUCAGAUUCUGGUGAAUCUGCGAAUUCUGCUGU [G4U G17U] | 0.072 |
| GGGGGCCACAGCAGAAGCGUUCACGUCGCGUCCCCUGUCAGAUUCUGGUGAAUCUGCGAAUUAUGCUGU [G31U C63A] | 0.25 |
| GGGGGCCACAGCGGAAGCGCUCACGUCGCGGCCCCUGUCAGAUUCUGGUGAAUCUGCGAAUUCUGCUGU [A13G U20C] | 0.199 |

Lookup result for GGGGGCCACAGCAGAAGCGUUCACGUCGCGGCCCCGGUCAGAUUCUGGUAAAUCUGCGAAUUCUGCUGU [U36G G50A] ; measured self-cleavage: 0.214

Lookup result for GGGGGCCACAGCAGAAGCGUUCACGUCGCGGCCCCUGUCAGAUUCUGGUGAAUCUACCAAUUCUGCUGU [G56A G58C] ; measured self-cleavage: 0.971

Lookup result for GGGGGCCACAGCAGAAGCGUUCACGUCGAGGCCCCUGUCAGAUUCUGGUGAAUCUGUGAAUUCUGCUGU [C29A C57U] ; measured self-cleavage: 0.247

Lookup result for GGGGGCCACAGCAGAAGCGUUCACGUCGCGGCCCCUGUCAGAAUCUGGUGACUCUGCGAAUUCUGCUGU [U43A A52C] ; measured self-cleavage: 0.991

Lookup result for GGGGGCCACAGCAGAAGCGUUAACGUCGCGGCCCCUGUCAGAUUCUGGUGAAUCUUCGAAUUCUGCUGU [C22A G56U] ; measured self-cleavage: 0.151

Lookup result for GGGGGCCACAGCAGAAGCGUACACGUCUCGGCCCCUGUCAGAUUCUGGUGAAUCUGCGAAUUCUGCUGU [U21A G28U] ; measured self-cleavage: 0.241
